Cited source for all entries: PubChem BioAssay (NCI)

System: SR leukemia
Assay: NCI-60 one-dose screen, 48 h
Settings: 10 µM unless noted
This is part of a sample that, as a whole, favours compounds with a hit. Of some 83,000 tested, about 20% had one in any assay. Activity calls are given as the source filed them. Rule for the calls: active = growth percent below 10; inactive = the rest.
Possible outcomes: active, inactive

COMPOUND	LABEL VALUE
COc1cc2c(c(OC)c1OC)C(=O)CC(c1cccc(NC(=O)c3ccc(C#N)cc3)c1)O2 (configuration not stated)	inactive
NNCCc1ccc(NC(=O)CCCc2ccc(C(=O)Nc3ccccc3N)cc2)cc1	inactive
COc1ccc2c(c1)c(-c1nc(-c3c[nH]c4ncccc34)cs1)cn2CCO	inactive
CN1CCN(c2ccc(NC(=O)c3cncnc3Nc3ccc(OCc4cccc(F)c4)c(Cl)c3)cc2)CC1	inactive
CN(C)c1ccc(/C=C(\C#N)c2cc3ccccc3[nH]2)cc1	inactive
CN1CCN(CCOc2ccc(-c3cnc4c(-c5cccc(F)c5F)cnn4c3)cc2)CC1	active
COc1cc2nc3sc(C(=O)Nc4ccc(C(=O)OC(C)C)cc4)c(C(=O)Nc4ccc(Cl)cc4C)n3c(=O)c2cc1OC	inactive
CC(C)(C)n1cc(-c2ccnc(NCCCNS(=O)(=O)c3cccc4ccccc34)c2)c(-c2cccc(F)c2)n1	inactive
CC1(C)CC[C@]23CC[C@]4(C)[C@H](CC[C@@H]5[C@@]6(C)C/C(=C/c7ccncc7)C(=O)C(C)(C)[C@@H]6CC[C@]54C)[C@H]2[C@H]1OC3	inactive
COC(=O)c1nc(-c2ccccc2)oc1S(=O)(=O)NCC(c1ccc(Cl)cc1)N1CCOCC1 (configuration not stated)	active
O=C(Nc1ncc(Cc2cc(C(F)(F)F)ccc2Cl)s1)c1cccs1	inactive
CCSc1oc(C)nc1[P+](c1ccccc1)(c1ccccc1)c1ccccc1	inactive
CCOC(=O)c1c(C)nc2c(c1N)CC(=O)N2Cc1ccc(OC)cc1	inactive
Cc1ccc2nc(/C(C#N)=C(/CCCO)NC(Cc3ccccc3)C(=O)OCc3ccccc3)[nH]c(=O)c2c1 (configuration not stated)	inactive
COc1cccc(-c2cc(-c3cccc(Cl)c3)c(C#N)c(=O)[nH]2)c1	inactive
CC(=O)c1sc2sc(C(C)=O)c(C)c2c1C	inactive
C#COc1cccc(Nc2ncnc3cc(NC(=O)[C@@H](C)Cl)ccc23)c1	active
O=C(C1CCCCC1)[C@@H]1[C@]2(C(=O)NC3CCCCC32)[C@@H]2CCCN2[C@@]12C(=O)NC1CCC(Cl)CC12 (some centres not stated)	active
COC(=O)c1c2c(c(C)[n+]([O-])c1C)C(=O)C(NCc1ccc(OC)cc1)=CC2=O	active
O=C1/C=C/[C@@H](O)[C@@H]2C[C@@H](O)C[C@H]2/C=C/CCC[C@H](CCO)O1	active
COc1cccc(/C=C/C(=O)c2cc3c(N)c(C(=O)Nc4cccc5ccccc45)sc3nc2C)c1	inactive
COc1cc(C(=O)n2nc(N3CCOCC3)c3cc(-n4cccc4)ccc32)cc(OC)c1OC	active
